Target: Vascular endothelial growth factor receptor 2 (Homo sapiens, UniProt P35968)
Sequence (P35968 whole entry): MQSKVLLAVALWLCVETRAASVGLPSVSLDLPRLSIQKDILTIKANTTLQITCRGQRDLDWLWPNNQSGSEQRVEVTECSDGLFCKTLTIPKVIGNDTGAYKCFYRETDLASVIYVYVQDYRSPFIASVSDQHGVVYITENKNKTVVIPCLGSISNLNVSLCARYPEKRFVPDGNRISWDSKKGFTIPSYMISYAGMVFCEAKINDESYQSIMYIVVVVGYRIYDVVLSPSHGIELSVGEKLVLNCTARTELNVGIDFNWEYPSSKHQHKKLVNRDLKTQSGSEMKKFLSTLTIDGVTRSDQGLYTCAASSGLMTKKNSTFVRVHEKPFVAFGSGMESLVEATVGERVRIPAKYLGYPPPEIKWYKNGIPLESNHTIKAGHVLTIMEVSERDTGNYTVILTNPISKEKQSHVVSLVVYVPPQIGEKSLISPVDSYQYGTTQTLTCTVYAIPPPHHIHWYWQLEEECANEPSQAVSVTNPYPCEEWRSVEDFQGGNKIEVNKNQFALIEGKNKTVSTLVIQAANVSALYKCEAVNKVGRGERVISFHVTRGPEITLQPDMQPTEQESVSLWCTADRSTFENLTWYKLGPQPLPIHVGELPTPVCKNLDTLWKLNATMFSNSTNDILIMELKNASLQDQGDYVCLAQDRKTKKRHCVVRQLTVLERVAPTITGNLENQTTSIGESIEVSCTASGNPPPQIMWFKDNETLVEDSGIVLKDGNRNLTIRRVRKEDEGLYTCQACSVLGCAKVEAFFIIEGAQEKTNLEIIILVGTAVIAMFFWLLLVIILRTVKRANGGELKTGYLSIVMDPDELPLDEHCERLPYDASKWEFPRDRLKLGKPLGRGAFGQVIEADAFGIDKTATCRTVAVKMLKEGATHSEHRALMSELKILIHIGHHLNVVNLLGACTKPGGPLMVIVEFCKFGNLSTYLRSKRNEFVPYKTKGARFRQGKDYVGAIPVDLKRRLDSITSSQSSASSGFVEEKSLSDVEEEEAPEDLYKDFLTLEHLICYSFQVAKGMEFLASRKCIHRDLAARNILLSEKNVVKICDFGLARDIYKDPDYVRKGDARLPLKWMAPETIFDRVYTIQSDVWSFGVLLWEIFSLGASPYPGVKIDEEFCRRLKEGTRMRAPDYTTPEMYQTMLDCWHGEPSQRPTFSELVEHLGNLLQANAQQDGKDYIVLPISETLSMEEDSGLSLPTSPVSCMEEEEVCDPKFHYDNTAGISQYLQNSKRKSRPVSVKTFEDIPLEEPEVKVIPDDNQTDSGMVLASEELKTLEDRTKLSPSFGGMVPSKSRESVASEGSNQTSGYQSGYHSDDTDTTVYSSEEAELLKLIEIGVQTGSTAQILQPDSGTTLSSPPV
We begin with a simple list: items and their reported IC50.
measuredQuantity: IC50 (nM)

molecule: Clc1ccc(/C=C/C(=N/Nc2nncc3ccccc23)c2ccccc2)cc1
resultNumber: 0.55

molecule: O=S(=O)(Nc1ncccn1)c1ccc(Nc2nncc3ccccc23)cc1
resultNumber: 8.5

molecule: Cc1cc(C)nc(NS(=O)(=O)c2ccc(Nc3nncc4ccccc34)cc2)n1
resultNumber: 0.77

molecule: S=C(NNc1nncc2ccccc12)Nc1ccc(Cl)cc1
resultNumber: 6.1

molecule: COc1ccc(/C=C/C(=N/Nc2nncc3ccccc23)c2ccc(Cl)cc2)cc1
resultNumber: 0.41

molecule: Oc1cc(O)c2cc(O)c(-c3cc(O)c(O)c(O)c3)[o+]c2c1 [DELPHINIDIN CHLORIDE]
resultNumber: 5.09

molecule: S=C(NNc1nncc2ccccc12)Nc1ccccc1
resultNumber: 6.2

molecule: CCCCN1C(=O)CS/C1=N/Nc1nncc2ccccc12
resultNumber: 1.2
